Experiment: Liver Microsome Stability Assay (human)
Details: human liver microsomes, with NADPH, 1.0 uM compound
experimental endpoint: Liver Microsome Stability (Multiple Species): Human - % Remaining after 30 min w/NADPH (%)

Consider the reported Liver Microsome Stability (Multiple Species): Human - % Remaining after 30 min w/NADPH for these compounds:
For this compound ( `O=C(Nc1nc([C@H]2CCCN2c2ccc(OC3COC3)cc2)cs1)c1cccn1Cc1ccncc1` ), measured Liver Microsome Stability (Multiple Species): Human - % Remaining after 30 min w/NADPH is 0.92

Lab note: `Cc1nc(CCc2csc(NC(=O)c3cccn3Cc3ccncc3)n2)co1` gave Liver Microsome Stability (Multiple Species): Human - % Remaining after 30 min w/NADPH of 0.12

Documented Liver Microsome Stability (Multiple Species): Human - % Remaining after 30 min w/NADPH of `Cc1ccc(/C=C/c2csc(NC(=O)c3cccn3CC3CCOCC3)n2)nc1F` : 0.24

# Liver Microsome Stability (Multiple Species): Human - % Remaining after 30 min w/NADPH of `CC(=O)N1CCC(c2ccc(N3CCC[C@@H]3c3csc(NC(=O)c4cccn4Cc4ccncc4)n3)cc2)CC1` = 0.34

Consider `O=C(Nc1nc([C@H]2CCCN2c2ccc(OC3CSC3)cc2)cs1)c1cccn1Cc1ccnc(F)c1` . Its measured Liver Microsome Stability (Multiple Species): Human - % Remaining after 30 min w/NADPH is 22.9

Liver Microsome Stability (Multiple Species): Human - % Remaining after 30 min w/NADPH for `O=C(CO)Nc1ccc(N2CCC[C@@H]2c2csc(NC(=O)c3cccn3Cc3ccnc(F)c3)n2)cc1` is 2.77

Record CC(C(N)=O)n1cnc(/C=C/c2csc(NC(=O)c3cccn3Cc3ccnc(F)c3)n2)c1 (stereo not drawn) . Reported Liver Microsome Stability (Multiple Species): Human - % Remaining after 30 min w/NADPH: 7.08

Liver Microsome Stability (Multiple Species): Human - % Remaining after 30 min w/NADPH reading for `O=C(Nc1nc([C@H]2CCCN2c2ccccc2)cs1)c1cccn1Cc1cccc(Cl)c1` : 75.8

The measured Liver Microsome Stability (Multiple Species): Human - % Remaining after 30 min w/NADPH associated with `O=C(Nc1nc([C@@H]2CCN(c3ccccn3)C2)cs1)c1cccn1Cc1ccncc1` reads 0.28

The compound listed as `CC(=O)N1CCC(Nc2ccc(N3CCC[C@@H]3c3csc(NC(=O)c4cccn4Cc4ccnc(F)c4)n3)cc2)CC1` shows Liver Microsome Stability (Multiple Species): Human - % Remaining after 30 min w/NADPH equal to 8.6

1 = O=C(Nc1nc(/C=C/c2cn(Cc3ccccc3)cn2)cs1)c1cccn1Cc1ccnc(F)c1
2 = CC(=O)N1CCC(Oc2ccc(N3CCC[C@@H]3c3csc(NC(=O)c4cccn4Cc4ccnc(F)c4)n3)cc2)CC1
Q. Select the item with the higher value of Liver Microsome Stability (Multiple Species): Human - % Remaining after 30 min w/NADPH from the options 1 and 2 listed. Record your answer as the label of the chosen record.
A. 2
(2: 34.3%, 1: 0.11%)

P = C/C(=C\c1ccc(OC(F)(F)F)cn1)c1csc(NC(=O)c2cccn2Cc2ccncc2)n1 [Compound E2]
Q = N#Cc1cnccc1Cn1cccc1C(=O)Nc1nc([C@H]2CCCN2c2ccccc2)cs1
Q. Identify the item whose Liver Microsome Stability (Multiple Species): Human - % Remaining after 30 min w/NADPH is the smaller number: P or Q Record your answer as the label of the chosen record.
A. Q

* * *

# Lookup of reported 24 hr Dox Inducible TNFaFLGluc 293FRT/TO: TNF/PD1 keyed by entry
Tested on: TNFα-FL/Gaussia Luciferase
Test: Dox Induced TNFα-FL-Gluc Assay
Assay type: cell-based
Settings: ratio of TNFaFLGluc IC50 to PD1ssGluc IC50
Source text: Flp-In 293 T-REx™ cells were transfected with pcDNA™5/FRT/TO plasmid inserted with cDNA encoding Gaussia Luciferase fused to the 3′ end of cDNA encoding full length TNFα (amino acids 1-233). Transfected cells were selected for resistance to the selectable markers Hygromycin and Blasticidin to create a stable cell line that contained the TNFα-FL/Gaussia Luciferase cDNA insert whose expression was regulated under the T-REx™ system. […]
No unit in the answer, please; the number alone is enough.

Some solved cases for reference:
Given item `CC(=O)N1CCC[C@H](Oc2ccc(N3CCC[C@@H]3c3csc(NC(=O)c4cccn4Cc4ccnc(F)c4)n3)cc2)C1` , the value recorded as its 24 hr Dox Inducible TNFaFLGluc 293FRT/TO: TNF/PD1 is 7.61

Looking up `C[C@H](N)c1ccc(N2CCC[C@@H]2c2csc(NC(=O)c3cccn3Cc3ccnc(F)c3)n2)cc1` , I see its 24 hr Dox Inducible TNFaFLGluc 293FRT/TO: TNF/PD1 listed as 23.7

Attention now shifts to the item below.
24 hr Dox Inducible TNFaFLGluc 293FRT/TO: TNF/PD1 for `O=C(Nc1nc([C@H]2CCCN2c2ccc(OC3CCSCC3)cc2)cs1)c1cccn1Cc1ccnc(F)c1` is 10.1

* * *

Examples of molecules with documented 24 hr Dox Inducible TNFaFLGluc 293FRT/TO: TNF/PD1 follow.
Test system: TNFα-FL/Gaussia Luciferase
Assay: Dox Induced TNFα-FL-Gluc Assay
Assay type: cell-based
Settings: ratio of TNFaFLGluc IC50 to PD1ssGluc IC50
Please reply with the value in numeric form only.

Lab book: 24 hr Dox Inducible TNFaFLGluc 293FRT/TO: TNF/PD1 of `O=C(Nc1nc([C@H]2CCCN2c2ccc([N+](=O)[O-])cc2)cs1)c1cccn1Cc1ccncc1` noted as 19.1

---
Memo: `CC(=O)N(C)c1ccc(N2CCC[C@@H]2c2csc(NC(=O)c3cccn3Cc3ccncc3)n2)cc1` , reported 24 hr Dox Inducible TNFaFLGluc 293FRT/TO: TNF/PD1: 12.7

For this molecule ( `NC(=O)c1ccc(N2CCC[C@@H]2c2csc(NC(=O)c3cccn3Cc3ccncc3)n2)cc1` ), measured 24 hr Dox Inducible TNFaFLGluc 293FRT/TO: TNF/PD1 is 18.4

Form: molecule = `O=C(Nc1nc(/C=C/c2coc(C3CCCCC3)n2)cs1)c1cccn1Cc1ccncc1` ; 24 hr Dox Inducible TNFaFLGluc 293FRT/TO: TNF/PD1 = 24.1

* * *

Test system: IL-2-FL/Gaussia Luciferase
Experiment: Dox Induced IL2-FL-Gluc Assay
Type: cell-based
Details: ratio of IL2FLGluc IC50 to PD1ssGluc IC50
Measured 24 hr Dox Inducible IL2FLGluc 293FRT/TO: IL2/PD1 accompanies every entry in the list below.
# output: bare number, no unit

Examples with answers:
`NC(=O)c1cc(C(=O)Nc2nc([C@H]3CCCN3c3ccccc3)cs2)n(Cc2ccnc(F)c2)c1` yielded 24 hr Dox Inducible IL2FLGluc 293FRT/TO: IL2/PD1 of 1.4

Summary for this compound, `CNCc1ccc(N2CCC[C@@H]2c2csc(NC(=O)c3cccn3Cc3ccncc3)n2)cc1` : 24 hr Dox Inducible IL2FLGluc 293FRT/TO: IL2/PD1 is 2.8

In plain terms, `Nc1ccc(N2CCC[C@@H]2c2csc(NC(=O)c3cccn3Cc3ccncc3)n2)cc1` has a documented 24 hr Dox Inducible IL2FLGluc 293FRT/TO: IL2/PD1 of 2.4

Value of 24 hr Dox Inducible IL2FLGluc 293FRT/TO: IL2/PD1 reported for the compound `NCc1ccc(N2CCC[C@@H]2c2csc(NC(=O)c3cccn3Cc3ccncc3)n2)cc1` is 2.4

Short answer for CC(=O)N1CCC(Oc2ccc(N3CCC[C@@H]3c3csc(NC(=O)c4cccn4Cc4ccnc(F)c4)n3)cc2)C(F)C1 (stereo partly drawn) : 24 hr Dox Inducible IL2FLGluc 293FRT/TO: IL2/PD1 was 2.1

Turning now to a further compound:
Form field 24 hr Dox Inducible IL2FLGluc 293FRT/TO: IL2/PD1, entry `O=C(Nc1nc([C@H]2CCCN2c2ccc(O[C@H]3CCCNC3)cc2)cs1)c1cccn1Cc1ccnc(F)c1` : 3.5

* * *

Test: Liver Microsome Stability Assay (monkey)
Conditions: monkey liver microsomes, with NADPH, 1.0 uM compound
experimental endpoint: Liver Microsome Stability (Multiple Species): Monkey - % Remaining after 30 min w/NADPH (%)

A selection of reference data follows.
// field: Liver Microsome Stability (Multiple Species): Monkey - % Remaining after 30 min w/NADPH; key: CC(C)n1cnc(-c2ccccc2-c2csc(NC(=O)c3cccn3Cc3ccnc(F)c3)n2)c1 [Compound A169] ; value = 0.11

Recorded Liver Microsome Stability (Multiple Species): Monkey - % Remaining after 30 min w/NADPH (compound O=C(NC1=NC(CCc2ccccc2)CS1)c1cccn1Cc1ccncc1 (stereo not shown) [Compound E50] ): 0.08

# compound NC(=O)CCCCn1cccc1C(=O)Nc1nc([C@H]2CCCN2c2ccccc2)cs1 [Compound C58] ; its Liver Microsome Stability (Multiple Species): Monkey - % Remaining after 30 min w/NADPH = 27.4

Input COCCCCn1cccc1C(=O)Nc1nc([C@H]2CCCN2c2ccccc2)cs1 [Compound C23] . Output Liver Microsome Stability (Multiple Species): Monkey - % Remaining after 30 min w/NADPH: 4.38

Kindly note the recorded Liver Microsome Stability (Multiple Species): Monkey - % Remaining after 30 min w/NADPH for NC(=O)N1CCC(Oc2ccc(N3CCC[C@@H]3c3csc(NC(=O)c4cccn4Cc4ccnc(F)c4)n3)nc2)CC1 [Compound A156] , which is 1.75

A = Cc1ocnc1/C=C/c1csc(NC(=O)c2cccn2Cc2ccnc(F)c2)n1 [Compound B47]
B = C[C@@H](O)c1ccc(N2CCC[C@@H]2c2csc(NC(=O)c3cccn3Cc3ccnc(F)c3)n2)cc1 [Compound A111]
C = O=C(Nc1nc(/C=C/c2cn(CCO)cn2)cs1)c1cccn1Cc1ccncc1 [Compound C114]
D = O=C1CCc2cc(N3CCC[C@@H]3c3csc(NC(=O)c4cccn4Cc4ccncc4)n3)ccc2N1 [Compound A75]
E = COc1cc(N2CCC[C@@H]2c2csc(NC(=O)c3cccn3Cc3ccnc(F)c3)n2)ccc1OC1CCN(C(C)=O)CC1 [Compound A129]
Q. Arrange items by their Liver Microsome Stability (Multiple Species): Monkey - % Remaining after 30 min w/NADPH values in increasing order. Sort the labels as requested; that list is your answer.
A. C, D, A, B, E
(C: 0.22%, D: 0.87%, A: 1.45%, B: 3.48%, E: 8.34%)

a = CS(=O)(=O)N1CCC(Oc2ccc(N3CCC[C@@H]3c3csc(NC(=O)c4cccn4Cc4ccnc(F)c4)n3)cc2)CC1 [Compound A128]
b = O=C(Nc1nc([C@H]2CCCN2c2ccc(C3CC3)cc2)cs1)c1cccn1Cc1ccncc1 [Compound A24]
Q. Sorting ascending by Liver Microsome Stability (Multiple Species): Monkey - % Remaining after 30 min w/NADPH, which comes first: a or b ? Lab log: write the label of the selected item as the result.
A. a
(a: 4.62%, b: 22.5%)
